experiment: Caco-2 bi-directional permeability assay
Assay type: in vitro ADME, human
details: human, Caco-2, apical to basolateral, 120 min; read-out: Mean recovery (%), Direction A→B
metric: recovery at 120 min, 10 μM (%)

[[record]]
molecule = "C=C(C)[C@@H]1CCC(C)=C[C@H]1c1c(O)cc(CCCCC)cc1O [CBD, cannabidiol, reference compound]"
unit_tag = "%"
test_result = 16.4


* * *

experiment: Caco-2 bi-directional permeability assay
Format: in vitro ADME, human
details: human, Caco-2; basolateral to apical, 120 min, mean and standard deviation of duplicates; read-out: Mean Papp, Direction B→A
Experimental: Intestinal permeability of cannabinoids and glycosylated cannabinoids was determined by measuring bi-directional transport across Caco-2 cell membranes. […] The test compound is added to either the apical or basolateral side of a confluent monolayer of Caco-2 cells and permeability is measured by monitoring the appearance of the test compound on the opposite side of the monolayer using LC-MS/QTOF. […]
metric: Papp B→A at 120 min, 10 μM (×10⁻⁶ cm/s)

[[record]]
molecule = "C=C(C)[C@@H]1CCC(C)=C[C@H]1c1c(O)cc(CCCCC)cc1O [CBD, cannabidiol, reference compound]"
unit_tag = "×10⁻⁶ cm/s"
test_result = 1.45

